- Target: T1, human GLP-2R (glucagon-like peptide-2 receptor) (human, UniProt O95838 1-553)
- T1 sequence (looked up): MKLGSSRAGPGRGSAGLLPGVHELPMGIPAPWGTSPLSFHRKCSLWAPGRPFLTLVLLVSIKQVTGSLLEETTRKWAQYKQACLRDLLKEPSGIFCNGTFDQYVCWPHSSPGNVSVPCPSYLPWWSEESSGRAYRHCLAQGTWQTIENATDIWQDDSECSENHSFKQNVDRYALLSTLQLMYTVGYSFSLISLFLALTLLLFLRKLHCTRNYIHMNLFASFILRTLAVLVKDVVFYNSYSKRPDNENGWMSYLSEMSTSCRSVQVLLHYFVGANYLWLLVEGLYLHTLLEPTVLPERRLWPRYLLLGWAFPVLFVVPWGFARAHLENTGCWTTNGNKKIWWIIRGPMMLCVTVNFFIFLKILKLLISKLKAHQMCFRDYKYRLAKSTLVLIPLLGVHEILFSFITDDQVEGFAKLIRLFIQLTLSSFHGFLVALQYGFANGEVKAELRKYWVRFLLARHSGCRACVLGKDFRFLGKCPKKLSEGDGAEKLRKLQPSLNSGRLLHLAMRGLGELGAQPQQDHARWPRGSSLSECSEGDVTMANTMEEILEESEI
- Procedure details: cell-based or functional assay
*1 amine or outer side, *2 acyl side, *3 side chain or, on linkers, in order; H or OH if unused. Where no end group is shown, it is not given here. Side-chain parts run from the residue outwards. [ ]: non-standard residue; d: D form. The star is where a group is joined. C18 diacid = O=C(O)CCCCCCCCCCCCCCCCC(=O)*; γGlu = O=C(O)[C@H](CCC(=O)[*:2])N[*:1]; Decanoyl = CCCCCCCCCC(=O)*; AEEA = NCCOCCOCC(=O)O; Aib = CC(C)(N)C(=O)O
Classify as follows. Reported Efficacy GLP-2R greater than or equal to 90: 1 (yes). Reported Efficacy GLP-2R below: 0 (no).

Binder: HXDGTFISDYSTXLDNLAARDFINWLIQTKITK (Aib at positions 2 and 13; K33 acylated with C10, K(C10); C-terminal amide (-NH2)) [Compound 12]
Label class: 0 (no)
--
Binder: H[Aib]EGTFISDYSTILDNLAARDFINWLIQTKITK(Decanoyl)-NH2 [Compound 11]
Label class: 0 (no)
--
Binder: HXDGTFISDYSTILDNLAARDFINWLIQTKITK (Aib at position 2; K33 acylated with C10, K(C10); C-terminus -OH) [Compound 2]
Label class: 1 (yes)
--
Binder: HXDGTFISDYSTILDNLAARDFIEWLIQTKITK (Aib at position 2; K33 acylated with C10, K(C10); C-terminal amide (-NH2)) [Compound 9]
Label class: 1 (yes)
--
Binder: HADGTFTSDYSTILDKLAARDFINWLIQTKGKKNDWKHNITQK([AEEA-AEEA-γGlu-C18 diacid])-OH [Compound 26]
Label class: 1 (yes)

Hello, the source for this data is patent US20250304644A1, in case you need it.
